Where do the numbers come from? From ChEMBL document CHEMBL5131450.

Test system: Cytochrome P450 1A1 (Homo sapiens, UniProt P04798)
Sequence (P04798 whole entry): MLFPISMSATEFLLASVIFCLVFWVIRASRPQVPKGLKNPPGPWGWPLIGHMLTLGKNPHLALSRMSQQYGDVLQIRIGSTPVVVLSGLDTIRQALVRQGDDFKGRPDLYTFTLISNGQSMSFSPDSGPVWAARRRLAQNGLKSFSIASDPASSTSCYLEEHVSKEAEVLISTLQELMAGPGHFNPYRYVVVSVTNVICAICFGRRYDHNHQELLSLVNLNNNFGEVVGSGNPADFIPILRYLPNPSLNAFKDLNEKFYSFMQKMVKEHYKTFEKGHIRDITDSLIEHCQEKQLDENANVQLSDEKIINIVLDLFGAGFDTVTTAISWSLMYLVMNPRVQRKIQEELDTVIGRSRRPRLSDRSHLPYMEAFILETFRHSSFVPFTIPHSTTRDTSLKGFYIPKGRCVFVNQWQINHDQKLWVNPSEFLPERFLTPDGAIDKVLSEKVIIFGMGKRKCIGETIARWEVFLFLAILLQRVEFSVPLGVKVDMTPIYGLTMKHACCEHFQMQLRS
Measured quantity: pIC50
One number for each entry, as −log10 of the molar value.

Past entries and their recorded results:
Provide only the value of recorded pIC50 for `c1ccc(N=NNc2ccccc2)cc1`
5.10

Provide only the value of recorded pIC50 for `CC(=O)c1ccc(/N=N/Nc2ccc(C(C)=O)cc2)cc1`
5.40

For the next question, use this compound.
Provide only the value of recorded pIC50 for `Brc1ccc(/N=N/Nc2ccc(Br)cc2)cc1`
5.52

---

Could you please report measured activity for the items listed next?
Test system: {'v': 'CYP1A1', 'o': 'p', 'q': 'Inhibition of CYP1A1 (unknown origin)'} (Homo sapiens, UniProt P04798)
Experiment summary: Inhibition of CYP1A1 (unknown origin) assessed as remaining enzyme activity relative to control
Assay type: ADME
Give bare numbers, in %.

Provide only the value of recorded activity for `Brc1ccc(/N=N/Nc2ccc(Br)cc2)cc1`
21

Provide only the value of recorded activity for `N#Cc1ccc(/N=N/Nc2ccc(C#N)cc2)cc1`
96

Can you give me activity for all of these, one by one?
1. c1ccc(N=NNc2ccccc2)cc1
2. CC(=O)c1ccc(/N=N/Nc2ccc(C(C)=O)cc2)cc1

1. 9
2. 33

---

Test system: {'v': 'CYP1B1', 'o': 'p', 'q': 'Inhibition of CYP1B1 (unknown origin)'} (Homo sapiens, UniProt Q16678)
Sequence (Q16678 whole entry): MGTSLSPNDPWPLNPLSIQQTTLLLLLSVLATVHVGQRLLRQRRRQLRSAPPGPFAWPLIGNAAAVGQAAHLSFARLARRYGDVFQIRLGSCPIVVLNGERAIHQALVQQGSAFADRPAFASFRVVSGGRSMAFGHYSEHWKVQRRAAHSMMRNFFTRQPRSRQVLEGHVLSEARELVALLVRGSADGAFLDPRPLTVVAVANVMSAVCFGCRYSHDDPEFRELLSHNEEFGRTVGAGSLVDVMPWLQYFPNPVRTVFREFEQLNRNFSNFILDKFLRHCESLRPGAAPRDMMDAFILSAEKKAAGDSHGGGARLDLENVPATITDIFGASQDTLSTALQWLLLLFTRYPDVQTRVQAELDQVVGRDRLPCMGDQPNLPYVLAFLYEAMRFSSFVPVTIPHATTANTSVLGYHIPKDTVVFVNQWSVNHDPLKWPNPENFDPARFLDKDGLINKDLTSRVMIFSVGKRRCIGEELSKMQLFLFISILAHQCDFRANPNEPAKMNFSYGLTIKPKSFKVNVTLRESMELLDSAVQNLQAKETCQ
Experiment summary: Inhibition of CYP1B1 (unknown origin) assessed as remaining enzyme activity relative to control
Assay type: ADME
Measured quantity: activity (%)
Give bare numbers, in %.

Past entries and their recorded results:
Provide only the value of recorded activity for `c1ccc(N=NNc2ccccc2)cc1`
4

Provide only the value of recorded activity for `CC(=O)c1ccc(/N=N/Nc2ccc(C(C)=O)cc2)cc1`
19

Provide only the value of recorded activity for `N#Cc1ccc(/N=N/Nc2ccc(C#N)cc2)cc1`
8

For the next question, use this compound.
Provide only the value of recorded activity for `Brc1ccc(/N=N/Nc2ccc(Br)cc2)cc1`
9
